target: cruzain (Trypanosoma cruzi); assay: biochemical; settings: read-out: Cruzain 10’ Inhibition, 10’ (pre-incubation time); sheet "Screening results"
Sequence (P25779 123-337 limits assumed): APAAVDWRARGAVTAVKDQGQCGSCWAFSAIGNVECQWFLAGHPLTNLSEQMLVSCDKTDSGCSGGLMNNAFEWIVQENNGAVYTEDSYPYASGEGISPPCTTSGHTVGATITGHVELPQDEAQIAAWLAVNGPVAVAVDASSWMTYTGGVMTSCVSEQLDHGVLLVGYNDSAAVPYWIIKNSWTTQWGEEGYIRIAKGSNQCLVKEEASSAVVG
Each entry below lists one item and its recorded inhibition at 5 µM value.
assay endpoint: inhibition at 5 µM (%)

COc1cc(C2=NCCN2)cc2cc(-c3ccc(C4=NCCN4)cc3)oc12 | 27
CN1CCN(CCCOc2ncc(Nc3ncc(-c4ccc(C(F)(F)F)c(F)c4)nc3C(N)=O)cn2)CC1 | 27
N=C(N)Nc1ccc(-c2ccc(-c3ccc(NC(=N)N)c(Cl)c3)o2)cc1Cl | 50
N=C(N)Nc1ccc(-c2ccc(-c3ccc(NC(=N)N)cc3Cl)o2)c(Cl)c1 | 110
CCn1cnc2c(Nc3cc(F)cc(F)c3)nc(C#N)nc21 [MMV676881, reference compound] | 108
CN1CCN(S(=O)(=O)c2ccc(-c3ccc4c(Nc5ccc6nn[nH]c6c5)ccnc4c3)cc2)CC1 | 39
O=C(NCCN1CCCC1)c1cc(NCCN2CCOCC2)nc2ccc(Cl)cc12 | 31
O=C(NCCN1CCCC1)c1cc(NCCCCN2CCC(F)(F)CC2)nc2ccc(Cl)cc12 | 53
N#Cc1ccc(-c2cnc(N)c(-c3ccc(C(N)=O)cc3)n2)cc1 | 25

Just for reference, paper PMC9967275 is where these values come from.
